Reported Ki values for a set of molecules
Molecular target: Muscarinic acetylcholine receptor M3 (Homo sapiens, UniProt P20309)
Sequence (P20309 whole entry): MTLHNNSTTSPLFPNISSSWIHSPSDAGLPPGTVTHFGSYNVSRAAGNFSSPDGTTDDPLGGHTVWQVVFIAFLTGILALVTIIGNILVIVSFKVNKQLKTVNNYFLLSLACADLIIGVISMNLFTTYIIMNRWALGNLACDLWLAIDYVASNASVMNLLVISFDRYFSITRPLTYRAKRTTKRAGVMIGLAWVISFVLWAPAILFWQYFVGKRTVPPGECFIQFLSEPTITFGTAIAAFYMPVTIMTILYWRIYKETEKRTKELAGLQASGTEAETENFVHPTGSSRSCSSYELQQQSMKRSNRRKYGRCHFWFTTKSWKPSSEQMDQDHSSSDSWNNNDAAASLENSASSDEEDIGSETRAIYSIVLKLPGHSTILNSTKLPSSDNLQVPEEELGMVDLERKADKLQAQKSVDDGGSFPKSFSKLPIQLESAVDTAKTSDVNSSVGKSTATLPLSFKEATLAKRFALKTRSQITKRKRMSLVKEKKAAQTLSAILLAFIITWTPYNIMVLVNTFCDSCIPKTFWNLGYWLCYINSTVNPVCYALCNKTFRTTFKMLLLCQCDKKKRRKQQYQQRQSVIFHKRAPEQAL
Assay: Inhibition of [3H]NMS binding to human muscarinic acetylcholine receptor M3 expressed in CHO cells
Type: cell-based
measure: Ki (nM)

• O=C(NC1CCN(Cc2ccccc2)CC1)[C@](O)(c1ccccc1)[C@@H]1CCC(F)(F)C1 = 3.8
• Cc1cccc(CN2CCC(NC(=O)C(O)(c3ccccc3)C3CCCC3)CC2)c1 (stereo unspecified) = 2.3
• O=C(NC1CCN(Cc2ccccn2)CC1)C(O)(c1ccccc1)C1CCCC1 (stereo unspecified) = 14
• Cc1cc(CN2CCC(NC(=O)C(O)(c3ccccc3)C3CCCC3)CC2)cs1 (stereo unspecified) = 3.5
• Cc1ccc(CN2CCC(NC(=O)C(O)(c3ccccc3)C3CCCC3)CC2)cc1 (stereo unspecified) = 6.4
• O=C(NC1CCN(Cc2cccc(O)c2)CC1)[C@](O)(c1ccccc1)[C@@H]1CCC(F)(F)C1 = 5.4
• O=C(NC1CCN(CC2CCCCC2)CC1)[C@](O)(c1ccccc1)[C@@H]1CCC(F)(F)C1 = 18
• COc1cccc(CN2CCC(NC(=O)C(O)(c3ccccc3)C3CCCC3)CC2)c1 (stereo unspecified) = 5.9
• CC(C)=CCCN1CCC(NC(=O)[C@](O)(c2ccccc2)[C@H]2CC[C@@H](F)C2)CC1 = 11
• CC(C)=CCCN1CCC(NC(=O)[C@](O)(c2ccccc2)[C@@H]2CCC(F)(F)C2)CC1 = 6.2
• Cc1cccc(CN2CCC(NC(=O)C(O)(c3ccccc3)C3CCCC3)CC2)n1 (stereo unspecified) = 11
• CC(C)=CCCN1CCC(NC(=O)[C@](O)(c2ccccc2)[C@H]2CC[C@H](O)C2)CC1 = 18
• O=C(NC1CCN(Cc2ccncc2)CC1)C(O)(c1ccccc1)C1CCCC1 (stereo unspecified) = 190
• O=C(NC1CCN(CC2CCCC2)CC1)C(O)(c1ccccc1)C1CCCC1 (stereo unspecified) = 270
• Nc1ccc(CN2CCC(NC(=O)[C@](O)(c3ccccc3)[C@@H]3CCC(F)(F)C3)CC2)cc1 = 7.8
• O=C(NC1CCN(CC2CCCCCC2)CC1)C(O)(c1ccccc1)C1CCCC1 (stereo unspecified) = 12
• O=C(NC1CCN(Cc2ccccn2)CC1)[C@](O)(c1ccccc1)[C@@H]1CCC(F)(F)C1 = 13
• Nc1ccc(CN2CCC(NC(=O)[C@](O)(c3ccccc3)[C@@H]3CCC(F)(F)C3)CC2)nc1 = 15
• O=C(NC1CCN(Cc2cccnc2)CC1)C(O)(c1ccccc1)C1CCCC1 (stereo unspecified) = 100
• CC(C)=CCCN1CCC(NC(=O)[C@](O)(c2ccccc2)[C@H]2CC[C@H](F)C2)CC1 = 19
• Nc1cccc(CN2CCC(NC(=O)[C@](O)(c3ccccc3)[C@@H]3CCC(F)(F)C3)CC2)n1 = 2.8
• NCc1cccc(CN2CCC(NC(=O)[C@](O)(c3ccccc3)[C@@H]3CCC(F)(F)C3)CC2)c1 = 21
• Nc1cccc(CN2CCC(NC(=O)[C@](O)(c3ccccc3)[C@@H]3CCC(F)(F)C3)CC2)c1 = 6.9
• O=C(NC1CCN(CC2CCCCC2)CC1)C(O)(c1ccccc1)C1CCCC1 (stereo unspecified) = 17
• O=C(NC1CCN(CC2CCCCCCC2)CC1)C(O)(c1ccccc1)C1CCCC1 (stereo unspecified) = 93
• Nc1ccc(CN2CCC(NC(=O)[C@](O)(c3ccccc3)[C@@H]3CCC(F)(F)C3)CC2)cc1F = 6.1
• O=C(NC1CCN(Cc2ccoc2)CC1)C(O)(c1ccccc1)C1CCCC1 (stereo unspecified) = 50
• O=C(NC1CCN(Cc2cccc(F)c2)CC1)[C@](O)(c1ccccc1)[C@@H]1CCC(F)(F)C1 = 3.1
• CC(C)=CCCN1CCC(NC(=O)[C@](O)(c2ccccc2)[C@H]2CCC(F)(F)C2)CC1 = 16
• O=C(NC1CCN(Cc2ccsc2)CC1)C(O)(c1ccccc1)C1CCCC1 (stereo unspecified) = 3.6
• Cc1ccccc1CN1CCC(NC(=O)C(O)(c2ccccc2)C2CCCC2)CC1 (stereo unspecified) = 220
